Here, each record is paired with measured viability at 24 h, 25 µM data.
# assay info: Cytotoxicity against mouse BV-2 cells assessed as cell viability at 25 uM measured after 24 hrs by CCK-8 assay relative to control
# Format: toxicity, cell-based
# measurement parameters: read-out: Activity

compound_string=CC(C)C[C@H](N)C(=O)Nc1ccc(COc2ccc3c(c2)OC2=C(/C=C/C4=[N+](CCCCCC(=O)NC[C@H]5O[C@@H](O[C@@H]6[C@@H](O)[C@H](N)C[C@H](N)[C@H]6O[C@H]6O[C@H](CN)[C@@H](O)[C@H](O)[C@H]6N)[C@H](O)[C@@H]5O[C@H]5O[C@@H](CN)[C@@H](O)[C@H](O)[C@H]5N)c5ccccc5C4(C)C)CCCC2=C3)cc1 measure_name="viability at 24 h, 25 µM" result="> 80%"

As a next step, examine the molecule that follows.
Exam item: Can you look up the measured viability at 24 h, 25 µM of `CC1(C)C(/C=C/C2=C3Oc4cc(O)ccc4C=C3CCC2)=[N+](CCCCCC(=O)NC[C@H]2O[C@@H](O[C@@H]3[C@@H](O)[C@H](N)C[C@H](N)[C@H]3O[C@H]3O[C@H](CN)[C@@H](O)[C@H](O)[C@H]3N)[C@H](O)[C@@H]2O[C@H]2O[C@@H](CN)[C@@H](O)[C@H](O)[C@H]2N)c2ccccc21` for me?
Marked response: > 80%

----------
# assay info: Cytotoxicity against human HepG2 cells assessed as cell viability at 25 uM measured after 24 hrs by CCK-8 assay relative to control
# Format: toxicity, cell-based
# measurement parameters: read-out: Activity
Here, each record is paired with measured viability at 24 h, 25 µM data.

compound_string=CC(C)C[C@H](N)C(=O)Nc1ccc(COc2ccc3c(c2)OC2=C(/C=C/C4=[N+](CCCCCC(=O)NC[C@H]5O[C@@H](O[C@@H]6[C@@H](O)[C@H](N)C[C@H](N)[C@H]6O[C@H]6O[C@H](CN)[C@@H](O)[C@H](O)[C@H]6N)[C@H](O)[C@@H]5O[C@H]5O[C@@H](CN)[C@@H](O)[C@H](O)[C@H]5N)c5ccccc5C4(C)C)CCCC2=C3)cc1 measure_name="viability at 24 h, 25 µM" result="> 80%"

Exam item: Can you look up the measured viability at 24 h, 25 µM of `CC1(C)C(/C=C/C2=C3Oc4cc(O)ccc4C=C3CCC2)=[N+](CCCCCC(=O)NC[C@H]2O[C@@H](O[C@@H]3[C@@H](O)[C@H](N)C[C@H](N)[C@H]3O[C@H]3O[C@H](CN)[C@@H](O)[C@H](O)[C@H]3N)[C@H](O)[C@@H]2O[C@H]2O[C@@H](CN)[C@@H](O)[C@H](O)[C@H]2N)c2ccccc21` for me?
Marked response: > 80%

Values were extracted from ChEMBL document CHEMBL6109130.
